# system: human histamine H4 receptor (Homo sapiens)
# Construct: membrane preparation
# run_description: Binding Assay on Recombinant Human Histamine H4 Receptor
# measurement_conditions: competition binding with 3H-histamine, membranes of SK-N-MC or COS7 cells transfected with human H4R; average of results obtained
Where a name gives a salt, the structure may show the parent alone.
assay_endpoint: pKi
Scale for pKi: -log10 of concentration given in mol/L; no unit attached.

Please review the entries below; each comes with its answer.
> print(dat)
                                   molecule  observed
1    Nc1nc(N2CC3CCC(C2)N3)c2oc3c(c2n1)CCCC3      7.49
2  CNC1CCN(c2ncnc3c4c(oc23)CCCC4)C1 (stereo in doubt)      7.18
3  CN[C@@H]1CCN(c2nc(N)nc3c4c(sc23)CCC(F)(F)C4)C1 [Example 59, trifluoroacetic acid salt]      8.05
4  NCCNc1nc(N)nc2c3c(sc12)CCC(F)(F)C3 [Example 128, hydrochloride]      6.82
5  Nc1nc(N2CC[C@H](N)C2)c2sc3c(c2n1)CC(F)(F)CC3 [Example 119, hydrochloride]      7.68

Sure, the documented pKi for CN[C@@H]1CCN(c2nc(N)nc3c4c(oc23)CCC(F)(F)C4)C1 [Example 116, hydrochloride] is 9.32

Sure, the documented pKi for Nc1nc(N2C[C@H]3CNC[C@H]3C2)c2sc3c(c2n1)CC(F)(F)CC3 is 6.17

Sure, the documented pKi for CN[C@@H]1CCN(c2nc(N)nc3c4c(sc23)CCC(C)(C)C4)C1 [Example 134, hydrochloride] is 8.12

Sure, the documented pKi for CN[C@@H]1CN(c2nc(N)nc3c4c(sc23)CCCC4)C[C@@H]1O is 6.52

Sure, the documented pKi for CN1CCN(c2ncnc3c4c(sc23)CCCC4)CC1 is 6.88

---

# system: human histamine H4 receptor (Homo sapiens, UniProt Q9H3N8)
# Construct: membrane preparation
# Sequence (Q9H3N8 whole entry): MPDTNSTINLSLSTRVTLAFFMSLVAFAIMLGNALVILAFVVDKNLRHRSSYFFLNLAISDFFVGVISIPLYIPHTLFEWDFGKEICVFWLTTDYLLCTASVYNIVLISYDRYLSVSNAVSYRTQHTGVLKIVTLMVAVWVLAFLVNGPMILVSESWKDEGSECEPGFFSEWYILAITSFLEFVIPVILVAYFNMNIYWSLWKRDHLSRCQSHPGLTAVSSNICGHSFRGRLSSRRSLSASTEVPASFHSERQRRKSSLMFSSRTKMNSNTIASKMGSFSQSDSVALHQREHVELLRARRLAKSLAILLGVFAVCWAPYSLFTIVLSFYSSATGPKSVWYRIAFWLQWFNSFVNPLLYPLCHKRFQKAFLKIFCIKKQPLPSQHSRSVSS
# run_description: Binding Assay on Recombinant Human Histamine H4 Receptor
# measurement_conditions: competition binding with 3H-histamine, membranes of SK-N-MC or COS7 cells transfected with human H4R; average of results obtained
Counter-ions that a name gives are not always drawn.
Overview of recorded Ki for various compounds
Please respond with the number in nM and leave the unit unwritten.

Please review the entries below; each comes with its answer.
> print(dat)
                                   compound  readout.unit  observed
1  Nc1nc(N2C[C@H]3CCCN[C@H]3C2)c2oc3c(c2n1)CC(F)(F)CC3 [Example 124, trifluoroacetate]            nM        33
2  CCNC1CCN(c2nc(N)nc3c4c(sc23)CCCC4)C1 (stereo in doubt) [Example 40, trifluoroacetic acid salt]            nM       503
3  NC[C@H]1CCN(c2nc(N)nc3c4c(sc23)CCCC4)C1 [Example 41, trifluoroacetic acid salt]            nM      1010
4  CN[C@H]1CCN(c2nc(N)nc3c4c(sc23)CCC(F)(F)C4)C1 [Example 112, trifluoroacetate]            nM         6

Sure, the documented Ki for NCCNc1nc(N)nc2c3c(oc12)CCCC3 [Example 25, trifluoroacetic acid salt] is 507

---

# system: human histamine H4 receptor (Homo sapiens, UniProt Q9H3N8)
# Construct: membrane preparation
# run_description: Binding Assay on Recombinant Human Histamine H4 Receptor
# measurement_conditions: competition binding with 3H-histamine, membranes of SK-N-MC or COS7 cells transfected with human H4R; average of results obtained
Counter-ions that a name gives are not always drawn.
Overview of recorded Ki for various molecules

Sure, the documented Ki for Nc1nc(N2CC(N)C2)c2oc3c(c2n1)CCCC3 [Example 23, trifluoroacetic acid salt] is 0.083 µM

Sure, the documented Ki for CC1(C)CCc2sc3c(N4CCCNCC4)nc(N)nc3c2C1 [Example 132, trifluoroacetate] is 0.035 µM

Sure, the documented Ki for Nc1nc(N2C[C@H]3C[C@@H]2CN3)c2sc3c(c2n1)CCCC3 is > 10 µM

Sure, the documented Ki for CN[C@H]1CCN(c2nc(N)nc3c4c(sc23)CCCC4)C1 [Example 55, trifluoroacetic acid salt] is 0.033 µM

---

# system: human histamine H4 receptor (Homo sapiens)
# Construct: membrane preparation
# run_description: Binding Assay on Recombinant Human Histamine H4 Receptor
# measurement_conditions: competition binding with 3H-histamine, membranes of SK-N-MC or COS7 cells transfected with human H4R; average of results obtained
Structures can show the parent of a compound that is named as a salt.
Overview of recorded pKi for various molecules
Scale for pKi: -log10 of concentration given in mol/L; no unit attached.

Please review the entries below; each comes with its answer.
> print(dat)
                                   molecule  observed
1  Nc1nc(N2CCCNCC2)c2sc3c(c2n1)CCCC3 [Example 37]      7.82
2  CN1C[C@@H]2CN(c3nc(N)nc4c5c(sc34)CCC(F)(F)C5)C[C@@H]2C1 [Example 121]      6.82

Sure, the documented pKi for CN1CCN(c2nc(N)nc3c4c(sc23)CCCC4)CC1 [Example 2] is 7.89

Sure, the documented pKi for CN[C@H]1CCN(c2nc(N)nc3c4c(sc23)CCC(C)(C)C4)C1 [Example 135, hydrochloride] is 7.46

Sure, the documented pKi for CC(C)N1CCN(c2nc(N)nc3c4c(sc23)CCCC4)CC1 [Example 50, trifluoroacetic acid salt] is 6.19

Sure, the documented pKi for CN(C)[C@@H]1CCN(c2nc(N)nc3c4c(sc23)CCCC4)C1 [Example 39, trifluoroacetic acid salt] is 7.21

Sure, the documented pKi for CN1CCN(c2nc(N)nc3c4c(oc23)CCCC4)CC1 [Example 5] is 8.10

Sure, the documented pKi for CN1CCN(c2nc(N)nc3ccsc23)CC1 [Example 1] is 6.30

---

# system: human histamine H4 receptor (Homo sapiens, UniProt Q9H3N8)
# Construct: expressed in transfected cells; host or cells: SK-N-MC cells or COS7 cells, transiently transfected with pH4R; membrane preparation
# run_description: Binding Assay on Recombinant Human Histamine H4 Receptor
# measurement_conditions: competition binding with 3H-histamine, membranes of SK-N-MC or COS7 cells transfected with human H4R; average of results obtained
Counter-ions that a name gives are not always drawn.
assay_endpoint: pKi
Scale for pKi: -log10 of concentration given in mol/L; no unit attached.

Sure, the documented pKi for CN(CCN)c1nc(N)nc2c3c(sc12)CCC(C)(C)C3 [Example 133, trifluoroacetate] is 7.27

Sure, the documented pKi for CC1(C)CCc2sc3c(N4CC[C@@H](N)C4)nc(N)nc3c2C1 [Example 136, hydrochloride] is 8.11

Sure, the documented pKi for CC(C)(C)c1cc2nc(N)nc(N3CCC(N)C3)c2s1 (stereo in doubt) [Example 18, trifluoroacetic acid salt] is 6.66

Sure, the documented pKi for Nc1nc(N2C[C@H]3CCCN[C@H]3C2)c2sc3c(c2n1)CCCC3 is 8.70

---

# system: human histamine H4 receptor (Homo sapiens)
# Construct: membrane preparation
# run_description: Binding Assay on Recombinant Human Histamine H4 Receptor
# measurement_conditions: competition binding with 3H-histamine, membranes of SK-N-MC or COS7 cells transfected with human H4R; average of results obtained
Structures can show the parent of a compound that is named as a salt.
assay_endpoint: pKi
Scale for pKi: -log10 of concentration given in mol/L; no unit attached.

Please review the entries below; each comes with its answer.
> print(dat)
                                   compound                                    system  observed
1     NCCN1CCN(c2nc(N)nc3c4c(sc23)CCCC4)CC1  human histamine H4 receptor (Homo sapiens)      5.65
2  Nc1nc(N2CCCNCC2)c2sc3c(c2n1)CC(F)(F)CC3 [Example 114, trifluoroacetate]  human histamine H4 receptor (Homo sapiens)      8.68
3  Nc1nc(N2C[C@H]3CCN[C@H]3C2)c2sc3c(c2n1)CCCC3  human histamine H4 receptor (Homo sapiens)      7.68
4  Nc1nc(N2C[C@H]3CNC[C@H]3C2)c2sc3c(c2n1)CCCC3  human histamine H4 receptor (Homo sapiens)      6.41
5  CNC1CCN(c2nc(N)nc3c(C)csc23)C1 (stereo in doubt)  human histamine H4 receptor (Homo sapiens)      6.74

Sure, the documented pKi for Nc1nc(N2CC[C@@H](N)C2)c2oc3c(c2n1)CC(F)(F)CC3 [Example 117, hydrochloride] is 8.17

Sure, the documented pKi for Nc1nc(N2C[C@H]3CCCN[C@H]3C2)c2sc3c(c2n1)CCCCC3 [Example 48, trifluoroacetic acid salt] is 8.52

Sure, the documented pKi for CN[C@H]1CCN(c2nc(N)nc3c4c(oc23)CCC(F)(F)C4)C1 [Example 122, trifluoroacetate] is 8.15
